Target: T1, recombinant human GM-CSF (human, UniProt P04141 18-144)
T1 construct: also called rhGM-CSF; CSF2
T1 sequence (P04141 18-144 limits assumed): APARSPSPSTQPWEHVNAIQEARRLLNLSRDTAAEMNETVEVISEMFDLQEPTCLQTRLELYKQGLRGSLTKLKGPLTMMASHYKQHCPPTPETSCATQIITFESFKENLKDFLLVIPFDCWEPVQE
Test: ELISA on coated rhGM-CSF, UBA relative to 1D2
Here the recorded binding affinity % of 1D2 is given for each entry.
Give a bare numeral; the unit % is implied.

Item: 1D2 SDR mutant LV32E (antibody, IgG1, V domains shown, also called X8 E) VH: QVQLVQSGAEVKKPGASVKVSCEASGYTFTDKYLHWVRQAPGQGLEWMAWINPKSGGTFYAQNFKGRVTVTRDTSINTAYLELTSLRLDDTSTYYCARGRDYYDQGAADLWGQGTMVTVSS VL: DIQLTQSPSSLSASVGDRVTITCRASQGINSELAWYQQKPGKAPKLLLYAASKLESGVPSRFSGSGSGTDYTLTISSLQPEDFGTYYCQQYYSPVRTFGQGTKVEIKR | binding affinity % of 1D2: 110

Item: 1D2 SDR mutant HY102F (antibody, IgG1, V domains shown, also called X5 F) VH: QVQLVQSGAEVKKPGASVKVSCEASGYTFTDKYLHWVRQAPGQGLEWMAWINPKSGGTFYAQNFKGRVTVTRDTSINTAYLELTSLRLDDTSTYYCARGRDFYDQGAADLWGQGTMVTVSS VL: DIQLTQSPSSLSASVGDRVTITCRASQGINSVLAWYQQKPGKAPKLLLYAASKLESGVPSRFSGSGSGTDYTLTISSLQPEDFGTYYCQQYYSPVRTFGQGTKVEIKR | binding affinity % of 1D2: 71

Item: 1D2 SDR mutant HY103D (antibody, IgG1, V domains shown, also called X6 D) VH: QVQLVQSGAEVKKPGASVKVSCEASGYTFTDKYLHWVRQAPGQGLEWMAWINPKSGGTFYAQNFKGRVTVTRDTSINTAYLELTSLRLDDTSTYYCARGRDYDDQGAADLWGQGTMVTVSS VL: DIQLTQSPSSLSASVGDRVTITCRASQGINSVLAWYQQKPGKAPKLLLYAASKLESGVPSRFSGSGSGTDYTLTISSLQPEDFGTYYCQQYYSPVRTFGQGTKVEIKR | binding affinity % of 1D2: 134

Item: 1D2 SDR mutant HR100C (antibody, IgG1, V domains shown, also called X4 C) VH: QVQLVQSGAEVKKPGASVKVSCEASGYTFTDKYLHWVRQAPGQGLEWMAWINPKSGGTFYAQNFKGRVTVTRDTSINTAYLELTSLRLDDTSTYYCARGCDYYDQGAADLWGQGTMVTVSS VL: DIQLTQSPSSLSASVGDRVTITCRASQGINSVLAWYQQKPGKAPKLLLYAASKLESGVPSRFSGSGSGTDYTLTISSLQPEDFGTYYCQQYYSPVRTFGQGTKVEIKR | binding affinity % of 1D2: 89

Item: 1D2 SDR mutant HK54V (antibody, IgG1, V domains shown, also called X3 V) VH: QVQLVQSGAEVKKPGASVKVSCEASGYTFTDKYLHWVRQAPGQGLEWMAWINPVSGGTFYAQNFKGRVTVTRDTSINTAYLELTSLRLDDTSTYYCARGRDYYDQGAADLWGQGTMVTVSS VL: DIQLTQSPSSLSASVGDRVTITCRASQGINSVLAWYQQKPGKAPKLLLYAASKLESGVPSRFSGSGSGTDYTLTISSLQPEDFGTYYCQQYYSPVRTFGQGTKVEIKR | binding affinity % of 1D2: 74
